biological target: Human Factor XIIa (Homo sapiens, UniProt P00748); construct: purchased Enzyme Research Laboratories; assay: Determination of FXIIa inhibition (in vitro IC50 assay, fluorogenic substrate H-DPro-Phe-Arg-AFC); format: biochemical
Sequence (P00748 373-615 limits assumed): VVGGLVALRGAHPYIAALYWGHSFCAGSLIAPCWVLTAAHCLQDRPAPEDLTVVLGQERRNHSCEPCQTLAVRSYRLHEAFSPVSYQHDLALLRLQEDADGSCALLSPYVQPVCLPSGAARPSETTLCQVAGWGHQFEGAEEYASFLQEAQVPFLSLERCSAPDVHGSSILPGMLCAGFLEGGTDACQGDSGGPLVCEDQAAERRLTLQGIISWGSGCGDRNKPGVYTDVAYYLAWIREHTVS
Sequence (P00748 20-372 partner limits assumed): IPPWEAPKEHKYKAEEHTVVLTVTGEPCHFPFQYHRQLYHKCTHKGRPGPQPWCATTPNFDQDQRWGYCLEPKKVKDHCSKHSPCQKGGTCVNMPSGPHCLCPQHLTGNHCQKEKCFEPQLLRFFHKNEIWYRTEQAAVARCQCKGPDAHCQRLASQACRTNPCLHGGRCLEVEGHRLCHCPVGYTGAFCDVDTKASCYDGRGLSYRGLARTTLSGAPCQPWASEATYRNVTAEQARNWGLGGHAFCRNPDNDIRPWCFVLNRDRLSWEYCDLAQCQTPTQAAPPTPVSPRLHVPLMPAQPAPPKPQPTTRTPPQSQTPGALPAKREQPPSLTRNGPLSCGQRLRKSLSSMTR
pIC50: −log10 of the molar value.
observation.type: pIC50

Req: // pIC50 lookup, key: Cn1ccc(OCC23CN(C(=O)NC4(c5ccccc5)CC4)C(CNc4cccc5c(N)nccc45)(C2)C3)cc1=O
Resp: 8.00 to 9.00

###

target: Human Factor XIIa (Homo sapiens); construct: purchased Enzyme Research Laboratories; assay: Determination of FXIIa inhibition (in vitro IC50 assay, fluorogenic substrate H-DPro-Phe-Arg-AFC); format: biochemical; settings: human Factor XIIa; fluorogenic substrate H-DPro-Phe-Arg-AFC at Km concentration; 5 min, 25 °C; class symbols; read-out: Human FXIIa IC50
pIC50: −log10 of the molar value.
observation.type: pIC50

Cn1ccc(OCC23CN(C(=O)C(C)(C)Oc4ccccc4)C(CNc4cccc5c(N)nccc45)(C2)C3)cc1=O :: 6.52 to 7.00

The following compounds each have a reported value; give each one's pIC50.
1. Cc1cc(OCC23CN(C(=O)N4CCC5(C4)CC5(F)F)C(CNc4cccc5c(N)nccc45)(C2)C3)cc(=O)n1C (stereo not shown)
2. Cc1cc(OCC23CN(C(=O)CC45CC(C4)C5)C(CNc4cccc5c(N)nccc45)(C2)C3)cc(=O)n1C

Resp:
1: 7.00 to 8.00; 2: 7.00 to 8.00

Provide pIC50 for all items below, preserving their order.
1. C[C@@H](NC(=O)N1CC2(COc3ccn(C)c(=O)c3)CC1(CNc1cccc3c(N)nccc13)C2)c1ccccc1
2. Cn1ccc(OCC23CN(C(=O)N[C@@H]4C[C@H]4c4ccccc4)C(CNc4cccc5c(N)nccc45)(C2)C3)cc1=O (racemic)
3. Cc1cc(OCC23CN(c4nnc(C5CC5)o4)C(CNc4cccc5c(N)nccc45)(C2)C3)cc(=O)n1C
4. Cn1ccc(OCC23CN(C(=O)N[C@@H](c4ccccc4)C(F)(F)F)C(CNc4cccc5c(N)nccc45)(C2)C3)cc1=O

Resp:
7.00 to 8.00
8.00 to 9.00
8.00 to 9.00
7.00 to 8.00

###

target: Human Factor XIIa (Homo sapiens); construct: purchased Enzyme Research Laboratories; experiment: Determination of FXIIa inhibition (in vitro IC50 assay, fluorogenic substrate H-DPro-Phe-Arg-AFC); assay type: biochemical; conditions: human Factor XIIa; fluorogenic substrate H-DPro-Phe-Arg-AFC at Km concentration; 5 min, 25 °C; class symbols; read-out: Human FXIIa IC50
pIC50: −log10 of the molar value.
observation.type: pIC50

Study these solved cases before continuing.
Cc1cc(OCC23CN(C(=O)NC4(c5ccccc5)CC4)C(CNc4cccnc4O)(C2)C3)cc(=O)n1C :: 4.00 to 4.40
CC(C(=O)N1CC2(COc3ccn(C)c(=O)c3)CC1(CNc1cccc3c(N)nccc13)C2)c1ccc2c(c1)CCO2 (centres unmarked) :: 7.00 to 8.00
Cc1cc(OCC23CN(C(=O)Nc4ccc5c(c4)OC(F)(F)O5)C(CNc4cccc5c(N)nccc45)(C2)C3)cc(=O)n1C :: 7.00 to 8.00

Take each entry in turn and give its pIC50.
1. COCCOCCNC(=O)N1CC2(COc3ccn(C)c(=O)c3)CC1(CNc1cccc3c(N)nccc13)C2
2. CO[C@H]1CC[C@H](CC(=O)N2CC3(COc4cc(C)n(C)c(=O)c4)CC2(CNc2cccc4c(N)nccc24)C3)CC1 (single isomer, unassigned)
3. Cc1cc(OCC23CN(C(=O)C(C)c4ccc5c(c4)CCO5)C(CNc4cccc5c(N)nccc45)(C2)C3)cc(=O)n1C (centres unmarked)
4. Cc1cc(OCC23CN(C(=O)NC4(c5ccccc5)CC4)C(CNc4cccc5c(N)nccc45)(C2)C3)cc(=O)n1C
5. Cn1ccc(OCC23CN(C(=O)Nc4ccc5c(c4)CCCO5)C(CNc4cccc5c(N)nccc45)(C2)C3)cc1=O
6. Cn1ccc(OCC23CN(C(=O)NCC4CCOCC4)C(CNc4cccc5c(N)nccc45)(C2)C3)cc1=O
7. Nc1nccc2c(NCC34CC(c5ncc(-c6ccccc6)o5)(CO3)C4)cccc12

Resp:
7.00 to 8.00
7.00 to 8.00
7.00 to 8.00
8.00 to 9.00
9.00 to 10.00
7.00 to 8.00
4.00 to 4.40

For the 4 molecules below, give their pIC50 values.
1. Cc1cc(OCC23CN(C(=O)N(C)C4COc5ccccc54)C(CNc4cccc5c(N)nccc45)(C2)C3)cc(=O)n1C (centres unmarked)
2. Cn1ccc(OCC23CN(C(=O)Cc4ccc5c(c4)CCO5)C(CNc4cccc5c(N)nccc45)(C2)C3)cc1=O
3. Cc1cc(OCC23CN(C(=O)N4CCCC5(CC5)C4)C(CNc4cccc5c(N)nccc45)(C2)C3)cc(=O)n1C
4. Cn1ccc(OCC23CN(C(=O)Cc4ccc5c(c4)NC(=O)CO5)C(CNc4cccc5c(N)nccc45)(C2)C3)cc1=O

Resp:
["8.00 to 9.00", "8.00 to 9.00", "7.00 to 8.00", "8.00 to 9.00"]
